Every entry's value here was drawn from PubChem BioAssay (NCATS).

- assay.target: Guanidinoacetate N-methyltransferase (Homo sapiens) (UniProt Q14353)
- assay.protocol: Confirmatory Screen for Target Class Profiling of Small Molecule Inhibitors of Methyltransferases (AID 1745852); note: % is set by controls: 0 for no effect and ±100 for the full control effect
- particulars: MTase-Glo luminescence, SAH detection, recombinant enzyme; at 57.3 µM (top of the series) unless noted
Documented activity change, negative = inhibition across a set of compounds
Give the value, in units of %, as a plain number.

Use these answered entries as a reference point.
compound | assay.target | quantitative.readout
CCc1c(-c2ccccc2)c(-c2ccccc2)nn1-c1ccccc1-c1cccc(OCC(=O)O)c1 | Guanidinoacetate N-methyltransferase (Homo sapiens) (UniProt Q14353) | 0
CC/C=C\CCO[C@@H]1O[C@H](CO)[C@@H](O)[C@H](O)[C@H]1O | Guanidinoacetate N-methyltransferase (Homo sapiens) (UniProt Q14353) | 0
Cc1cc(N(C)C)ccc1-c1nc2ccc(-c3nc4ccc(N5CCN(C)CC5)cc4[nH]3)cc2[nH]1 | Guanidinoacetate N-methyltransferase (Homo sapiens) (UniProt Q14353) | 0

The reported Guanidinoacetate N-methyltransferase (Homo sapiens) (UniProt Q14353) activity change, negative = inhibition of C=C(C)C(=O)OC1CC2(C)OC(=CC2=O)C(=C)CC2OC(=O)C(COC)C12 (stereo unspecified) is -5.17
